Where do the numbers come from? From patent US12258327B2.

Listed molecules paired with reported IC50
Biological target: EGFR del19/C797S (Homo sapiens, UniProt P00533, C797S/DEL746-750)
Sequence (P00533 with tags, fused parts or gaps DEL746-750/C797S): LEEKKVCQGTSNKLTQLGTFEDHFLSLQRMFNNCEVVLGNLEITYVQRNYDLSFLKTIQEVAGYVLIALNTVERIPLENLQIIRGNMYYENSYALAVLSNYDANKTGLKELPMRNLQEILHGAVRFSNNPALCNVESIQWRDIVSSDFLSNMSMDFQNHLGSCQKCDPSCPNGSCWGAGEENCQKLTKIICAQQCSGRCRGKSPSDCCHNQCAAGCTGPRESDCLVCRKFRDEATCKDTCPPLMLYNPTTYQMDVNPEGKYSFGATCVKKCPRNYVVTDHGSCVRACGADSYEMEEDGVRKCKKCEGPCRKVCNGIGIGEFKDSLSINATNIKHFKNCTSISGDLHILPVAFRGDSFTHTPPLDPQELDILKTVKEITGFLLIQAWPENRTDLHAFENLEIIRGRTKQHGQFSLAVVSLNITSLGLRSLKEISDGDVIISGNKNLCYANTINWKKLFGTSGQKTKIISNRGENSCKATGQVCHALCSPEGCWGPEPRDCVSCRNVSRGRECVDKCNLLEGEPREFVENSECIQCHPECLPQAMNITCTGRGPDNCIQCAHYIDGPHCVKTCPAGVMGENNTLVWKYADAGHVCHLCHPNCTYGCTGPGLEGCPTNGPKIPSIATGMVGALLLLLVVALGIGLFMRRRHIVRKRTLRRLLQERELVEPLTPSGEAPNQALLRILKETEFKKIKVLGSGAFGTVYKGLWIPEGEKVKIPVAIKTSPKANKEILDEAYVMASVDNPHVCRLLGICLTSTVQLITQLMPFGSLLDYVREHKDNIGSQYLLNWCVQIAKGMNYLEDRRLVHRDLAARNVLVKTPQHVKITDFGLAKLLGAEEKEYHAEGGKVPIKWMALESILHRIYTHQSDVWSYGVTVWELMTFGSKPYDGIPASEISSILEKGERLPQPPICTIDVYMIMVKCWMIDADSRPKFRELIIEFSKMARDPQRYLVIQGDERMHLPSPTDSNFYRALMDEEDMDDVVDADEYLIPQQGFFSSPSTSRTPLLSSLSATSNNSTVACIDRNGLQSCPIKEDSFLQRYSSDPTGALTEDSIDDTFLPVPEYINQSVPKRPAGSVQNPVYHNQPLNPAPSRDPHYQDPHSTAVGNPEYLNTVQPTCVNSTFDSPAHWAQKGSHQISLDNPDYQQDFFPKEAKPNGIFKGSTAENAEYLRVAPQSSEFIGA
Assay: Biochemical EGFR kinase assay (Lance Ultra TR-FRET), double mutant del19/C797S
Conditions: IC50 del19/C797S, 100 μM ATP
Numeric answer only, unit nM assumed.

C[C@]1(CO)C[C@@H](Nc2cc(Nc3ccnc(-c4cnn(S(=O)(=O)C5CC5)c4)n3)ncc2-c2ccn(C(F)F)n2)C1 [Example 378] : 23.9
Cn1nc(-c2cnc(Nc3ccnc(N4CCC(O)C(F)(F)C4)n3)cc2NC2CCC(C)(O)CC2)cc1C(F)(F)F (stereo not drawn) [Example 353] : 252
CC1(O)CCC(Nc2cc(Nc3ccnc(N4CC(CO)C(F)(F)C4)n3)ncc2-c2ccn(C(F)F)n2)CC1 (stereo not drawn) [Example 346] : 124
C[C@]1(O)CC[C@@H](Nc2cc(Nc3ccnc(-c4cnn(S(=O)(=O)C5CC5)c4)c3)ncc2-c2ccn(C(F)F)n2)CC1 [Example 354] : 135
CC1(O)CCC(Nc2cc(Nc3ccnc(N4CCC(O)C(F)(F)C4)n3)ncc2-c2ccn(C(F)F)n2)CC1 (stereo not drawn) [Example 348] : 134
O=S(=O)(C1CC1)n1cc(-c2nccc(Nc3cc(N[C@H]4C[C@@H](CO)C4)c(-c4ccn(C(F)F)n4)cn3)n2)cn1 [Example 377] : 5.8
CC1(O)CCC(Nc2cc(Nc3ccnc(N4CC(CO)C(C)(C)C4)n3)ncc2-c2ccn(C(F)F)n2)CC1 (stereo not drawn) [Example 347] : 329
C[C@]1(O)CC[C@@H](Nc2cc(Nc3ccnc(-c4cnn(S(=O)(=O)C5CC5)c4)n3)ncc2-n2cccn2)CC1 [Example 376] : 8

Short answer for CC1(O)CCC(Nc2cc(Nc3ccnc(N4CC(O)C(F)(F)C4)n3)ncc2-c2ccn(C(F)F)n2)CC1 (stereo not drawn) [Example 349] : IC50 was 276

====

Listed compounds paired with reported log10(IC50)
Target: EGFR wildtype (WT) (Homo sapiens, UniProt P00533)
Sequence (P00533 25-1210): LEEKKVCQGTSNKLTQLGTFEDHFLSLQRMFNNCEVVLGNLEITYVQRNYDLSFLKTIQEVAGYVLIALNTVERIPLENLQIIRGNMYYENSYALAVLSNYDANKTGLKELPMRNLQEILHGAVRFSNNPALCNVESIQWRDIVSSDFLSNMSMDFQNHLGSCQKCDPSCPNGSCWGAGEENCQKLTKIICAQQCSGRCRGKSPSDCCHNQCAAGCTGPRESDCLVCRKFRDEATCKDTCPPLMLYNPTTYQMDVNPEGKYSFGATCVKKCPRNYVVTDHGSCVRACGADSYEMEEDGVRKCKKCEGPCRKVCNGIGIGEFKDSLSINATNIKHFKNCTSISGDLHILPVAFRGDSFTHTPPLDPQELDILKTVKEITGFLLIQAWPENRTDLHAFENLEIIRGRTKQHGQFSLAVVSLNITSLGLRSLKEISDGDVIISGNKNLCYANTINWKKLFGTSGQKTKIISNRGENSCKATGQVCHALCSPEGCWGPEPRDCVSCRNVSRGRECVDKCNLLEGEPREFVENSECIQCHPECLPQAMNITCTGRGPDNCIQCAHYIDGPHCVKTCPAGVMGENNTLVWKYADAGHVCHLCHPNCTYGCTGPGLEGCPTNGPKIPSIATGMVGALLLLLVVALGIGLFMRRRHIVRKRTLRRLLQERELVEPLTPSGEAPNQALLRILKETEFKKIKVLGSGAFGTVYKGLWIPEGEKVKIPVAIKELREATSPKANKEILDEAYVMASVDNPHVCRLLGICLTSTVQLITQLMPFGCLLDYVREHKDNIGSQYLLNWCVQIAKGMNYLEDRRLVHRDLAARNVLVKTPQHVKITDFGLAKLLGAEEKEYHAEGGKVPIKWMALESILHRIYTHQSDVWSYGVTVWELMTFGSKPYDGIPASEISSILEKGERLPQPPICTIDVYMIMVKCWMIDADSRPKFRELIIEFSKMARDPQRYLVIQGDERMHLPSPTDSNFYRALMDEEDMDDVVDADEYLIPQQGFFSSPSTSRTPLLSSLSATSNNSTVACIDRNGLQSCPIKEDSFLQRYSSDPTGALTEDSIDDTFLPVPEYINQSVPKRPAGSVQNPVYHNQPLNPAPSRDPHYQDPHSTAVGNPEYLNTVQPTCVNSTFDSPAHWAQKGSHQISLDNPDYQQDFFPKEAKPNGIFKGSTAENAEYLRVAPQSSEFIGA
Assay: Biochemical EGFR kinase assay (Lance Ultra TR-FRET), wildtype
Settings: Km ATP; read-out: IC50 WT (nM) Km ATP
Form field - Quantity: IC50; Unit: nM; Scale: log10

CN(C)CC[C@H]1CC[C@@H](Nc2cc(Nc3ccnc(-c4cnn(S(=O)(=O)C5CC5)c4)n3)ncc2-c2ccn(CC(F)F)n2)CC1 : -0.52
COc1ccc(-c2nccc(Nc3cc(N[C@H]4CC[C@@](C)(O)CC4)c(-c4ccn(C(F)F)n4)cn3)n2)c(F)n1 : 2.70
CN(C)C[C@H]1CC[C@@H](Nc2cc(Nc3ccnc(-c4cnn(S(=O)(=O)C5CC5)c4)n3)ncc2-c2cc(C(C)(C)O)n(C)n2)CC1 : -0.70
O=S(=O)(C1CC1)n1cc(-c2nccc(Nc3cc(N[C@H]4CC[C@@H](CO)CC4)c(-c4cc5n(n4)CCCC5)cn3)n2)cn1 : 0.34

Now for another entry.
Short answer for CN(CC(F)F)C[C@H]1CC[C@@H](Nc2cc(Nc3ccnc(-c4cnn(S(=O)(=O)C5CC5)c4)n3)ncc2-c2ccn(C)n2)CC1 : log10(IC50) was 1.19

====

Biological target: EGFR L858R/T790M/C797S (Homo sapiens, UniProt P00533, C797S/L858R/T790M)
Sequence (P00533 25-1210 T790M/C797S/L858R): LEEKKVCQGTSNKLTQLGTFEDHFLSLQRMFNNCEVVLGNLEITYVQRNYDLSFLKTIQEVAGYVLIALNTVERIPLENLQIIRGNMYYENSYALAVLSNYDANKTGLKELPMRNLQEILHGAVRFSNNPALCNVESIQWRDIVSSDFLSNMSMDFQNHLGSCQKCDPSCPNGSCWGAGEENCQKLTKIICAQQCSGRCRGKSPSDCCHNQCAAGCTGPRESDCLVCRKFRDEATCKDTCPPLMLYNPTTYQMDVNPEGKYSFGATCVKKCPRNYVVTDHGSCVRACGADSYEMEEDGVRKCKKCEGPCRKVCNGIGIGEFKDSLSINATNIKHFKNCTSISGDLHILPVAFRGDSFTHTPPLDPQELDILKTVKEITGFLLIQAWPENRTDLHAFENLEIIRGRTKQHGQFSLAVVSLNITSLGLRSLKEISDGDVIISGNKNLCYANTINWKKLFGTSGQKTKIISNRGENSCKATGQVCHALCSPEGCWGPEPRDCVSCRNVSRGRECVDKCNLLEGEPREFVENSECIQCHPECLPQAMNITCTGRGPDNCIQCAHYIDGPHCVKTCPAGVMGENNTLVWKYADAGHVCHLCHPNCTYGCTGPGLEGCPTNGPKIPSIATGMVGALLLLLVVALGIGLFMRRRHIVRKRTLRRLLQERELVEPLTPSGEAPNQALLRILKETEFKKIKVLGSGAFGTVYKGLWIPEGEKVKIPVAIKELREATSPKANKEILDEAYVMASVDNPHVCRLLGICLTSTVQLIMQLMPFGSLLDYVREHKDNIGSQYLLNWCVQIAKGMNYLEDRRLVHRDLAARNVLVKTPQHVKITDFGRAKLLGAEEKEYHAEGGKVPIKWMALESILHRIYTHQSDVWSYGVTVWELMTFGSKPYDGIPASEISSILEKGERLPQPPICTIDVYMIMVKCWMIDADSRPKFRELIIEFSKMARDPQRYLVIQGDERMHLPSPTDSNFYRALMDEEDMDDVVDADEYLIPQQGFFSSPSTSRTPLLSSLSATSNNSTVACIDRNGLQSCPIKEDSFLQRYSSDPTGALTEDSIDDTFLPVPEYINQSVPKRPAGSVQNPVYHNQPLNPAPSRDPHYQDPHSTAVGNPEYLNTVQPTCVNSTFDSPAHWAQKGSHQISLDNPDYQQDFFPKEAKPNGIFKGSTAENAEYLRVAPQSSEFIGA
Test: Biochemical EGFR kinase assay (Lance Ultra TR-FRET), triple mutant L858R/T790M/C797S
Details: Km ATP; read-out: IC50 L858R/T790M/C797S, Km ATP
Measurement Kind: IC50 (nM)
Numeric answer only, unit nM assumed.

O=S(=O)(C1CC1)n1cc(-c2cc(Nc3ncc(-c4ccn(C(F)F)n4)c(N[C@H]4CC[C@@H](CO)CC4)n3)ccn2)cn1 [Example 364] : 0.8

Short answer for Cn1nc(-c2nnc(Nc3ccnc(-c4cnn(S(=O)(=O)C5CC5)c4)n3)cc2N[C@H]2CC[C@@](C)(O)CC2)cc1C(F)(F)F [Example 373] : IC50 was 3

Short answer for C[C@]1(CO)C[C@@H](Nc2cc(Nc3ccnc(-c4cnn(S(=O)(=O)C5CC5)c4)n3)ncc2-c2ccn(C(F)F)n2)C1 [Example 378] : IC50 was 0.3

Short answer for O=S(=O)(C1CC1)n1cc(-c2cc(Nc3ncc(-c4ccn(CC(F)(F)F)n4)c(N[C@H]4CC[C@@H](F)CC4)n3)ccn2)cn1 [Example 366] : IC50 was 3.1

Short answer for CC1(O)CCC(Nc2cc(Nc3ccnc(N4CCC(F)(F)C(O)C4)n3)ncc2-c2ccn(C(F)F)n2)CC1 (stereo not shown) [Example 350] : IC50 was 2.6

Short answer for Cc1nn(CC(F)(F)F)cc1-c1nccc(Nc2cc(N[C@H]3CC[C@@](C)(O)CC3)c(-c3ccn(CC(F)F)n3)cn2)n1 [Example 335] : IC50 was 0.7

Short answer for C[C@]1(O)CC[C@@H](Nc2cc(Nc3ccnc(-c4cnn(S(=O)(=O)C5CC5)c4)n3)nnc2-c2ccn(CC(F)(F)F)n2)CC1 [Example 374] : IC50 was 0.6

Short answer for Cc1nn(CC(F)(F)F)cc1-c1cc(Nc2ncc(-c3cc(C(F)(F)F)n(C)n3)c(N[C@H]3CC[C@@](C)(O)CC3)n2)ccn1 [Example 369] : IC50 was 1

Short answer for Cn1nc(-c2cnc(Nc3ccnc(-c4cnn(CC(F)F)c4)n3)cc2N[C@H]2CC[C@@](C)(O)CC2)cc1C(F)(F)F [Example 331] : IC50 was 2.6

Short answer for Cn1nc(-c2cnc(Nc3ccnc(N4CCC(O)C(F)(F)C4)n3)cc2NC2CCC(C)(O)CC2)cc1C(F)(F)F (stereo not shown) [Example 353] : IC50 was 0.3

Short answer for O=S(=O)(C1CC1)n1cc(-c2nccc(Nc3cc(N[C@H]4C[C@@H](CO)C4)c(-c4ccn(C(F)F)n4)cn3)n2)cn1 [Example 377] : IC50 was 0.1

Short answer for C[C@]1(O)CC[C@@H](Nc2nc(Nc3ccnc(-c4cnn(S(=O)(=O)C5CC5)c4)c3)ncc2-c2ccn(CC(F)(F)F)n2)CC1 [Example 360] : IC50 was 0.9

Short answer for C[C@]1(O)CC[C@@H](Nc2cc(Nc3ccnc(N4CCC[C@H](O)C4)n3)ncc2-c2ccn(C(F)F)n2)CC1 [Example 351] : IC50 was 2.8

====

Listed molecules paired with reported IC50
Target: EGFR del19/C797S (Homo sapiens, UniProt P00533, C797S/DEL746-750)
Assay: Biochemical EGFR kinase assay (Lance Ultra TR-FRET), double mutant del19/C797S
Settings: IC50 del19/C797S (nM) 100 μM ATP, 100 μM ATP
Numeric answer only, unit nM assumed.

Cn1nc(-c2cnc(Nc3ccnc(-c4cnn(S(=O)(=O)C5CC5)c4)n3)cc2N[C@H]2CC[C@@H](C(C)(C)O)CC2)cc1C(C)(C)O : 0.8
CN[C@H]1CC[C@H](CNc2cc(Nc3ccnc(-c4cnn(S(=O)(=O)C5CC5)c4)n3)ncc2-c2ccn(C(F)F)n2)CC1 : 0.7
O=S(=O)(C1CC1)n1cc(-c2nccc(Nc3cc(N[C@H]4CCC[C@H](CO)C4)c(-c4ccn(CC(F)(F)F)n4)cn3)n2)cn1 : 122
CC(C)(O)[C@H]1CC[C@@H](Nc2cc(Nc3ccnc(-c4cnn(S(=O)(=O)C5CC5)c4)n3)ncc2-c2ccn(CC(F)F)n2)CC1 : 2
O=S(=O)(C1CC1)n1cc(-c2nccc(Nc3cc(NC4CCCC(NCC(F)F)C4)c(-c4ccn(C(F)F)n4)cn3)n2)cn1 (stereo not shown) : 35.5

Short answer for CC1(C)CC(Nc2cc(Nc3ccnc(-c4cnn(S(=O)(=O)C5CC5)c4)n3)ncc2-c2ccn(C(F)F)n2)CCC1O (stereo not shown) : IC50 was 22.7

Short answer for CN(C)C(=O)C[C@H]1CC[C@@H](Nc2cc(Nc3ccnc(-c4cnn(S(=O)(=O)C5CC5)c4)n3)ncc2-c2ccn(C)n2)CC1 : IC50 was 0.3

Short answer for C[C@]1(O)CC[C@@H](Nc2cc(Nc3ccnc(-c4cnn(S(=O)(=O)C5CC5)c4)n3)ncc2-c2ccn(CC(F)(F)F)n2)CC1 : IC50 was 2.7

Short answer for Cn1ccc(-c2cnc(Nc3ccnc(-c4cnn(S(=O)(=O)C5CC5)c4)n3)cc2NC[C@H]2CC[C@@H](O)C2)n1 : IC50 was 0.2

Short answer for O=S(=O)(C1CC1)n1cc(-c2nccc(Nc3cc(N[C@@H]4CC[C@H](O)C4)c(-c4ccn(C(F)F)n4)cn3)n2)cn1 : IC50 was 3.8

Short answer for Cn1ccc(-c2cnc(Nc3ccnc(-c4cnn(S(=O)(=O)C5CC5)c4)n3)cc2N[C@H]2CC[C@@H](N(C)C)CC2)n1 : IC50 was 0.6

Short answer for CN(C)C[C@H]1CC[C@@H](Nc2cc(Nc3ccnc(-c4cnn(S(=O)(=O)C5CC5)c4)n3)ncc2-c2cc(C(F)(F)F)n(C)n2)CC1 : IC50 was 2

Short answer for CN(C)CCCn1ccc(-c2cnc(Nc3ccnc(-c4cnn(S(=O)(=O)C5CC5)c4)n3)cc2N[C@H]2CC[C@@H](NCCF)CC2)n1 : IC50 was 0.4

Short answer for CN(C)C(=O)n1cc(-c2nccc(Nc3cc(N[C@H]4CC[C@@](C)(O)CC4)c(-c4ccn(C(F)F)n4)cn3)n2)cn1 : IC50 was 30.1

Short answer for CC1(O)CCC(Oc2cc(Nc3ccnc(-c4cnn(S(=O)(=O)C5CC5)c4)n3)ncc2-c2ccn(C(F)F)n2)CC1 (stereo not shown) : IC50 was 6.1

Short answer for O=S(=O)(C1CC1)n1cc(-c2nccc(Nc3cc(N[C@H]4CC[C@@H](CO)CC4)c(-c4ccn(C(F)F)n4)cn3)n2)cn1 : IC50 was 1.4

Short answer for C[C@]1(O)CC[C@@H](Nc2cc(Nc3ccnc(-c4cnn(CC5CC5)c4)n3)ncc2-c2ccn(C(F)F)n2)CC1 : IC50 was 111

Short answer for Cn1ccc(-c2cnc(Nc3ccnc(-c4cnn(S(=O)(=O)C5CC5)c4)n3)cc2N[C@H]2CC[C@](O)(C(F)F)CC2)n1 : IC50 was 2

Short answer for O=S(=O)(C1CC1)n1cc(-c2nccc(Nc3cc(N[C@H]4CC[C@@H](O)CC4)c(-c4ccn(C(F)F)n4)cn3)n2)cn1 : IC50 was 1.2

Short answer for O=S(=O)(C1CC1)n1cc(-c2nccc(Nc3cc(NC4CCC(O)C4)c(-c4ccn(C(F)F)n4)cn3)n2)cn1 (stereo not shown) : IC50 was 3.2

Short answer for C[C@]1(O)CC[C@@H](Nc2cc(Nc3ccnc(-c4cnn(CC(F)F)c4)n3)ncc2-c2ccn(C(F)F)n2)CC1 : IC50 was 2.7

Short answer for CN(C)CCCn1ccc(-c2cnc(Nc3ccnc(-c4cnn(S(=O)(=O)C5CC5)c4)n3)cc2N[C@H]2CC[C@@H](CO)CC2)n1 : IC50 was 0.3

Short answer for O=S(=O)(C1CC1)n1cc(-c2nccc(Nc3cc(N[C@H]4CC[C@H](CO)OC4)c(-c4ccn(C(F)F)n4)cn3)n2)cn1 : IC50 was 131

Short answer for Cn1nc(-c2cnc(Nc3nc(-c4cnn(S(=O)(=O)C5CC5)c4)ncc3F)cc2N[C@H]2CC[C@@](C)(O)CC2)cc1C(F)(F)F : IC50 was 11.5

Short answer for C[C@]1(O)CC[C@@H](Nc2cc(Nc3ccnc(-c4cnn(S(=O)(=O)C5CC5)c4)n3)ncc2-c2ccn(C3COC3)n2)CC1 : IC50 was 0.8
